// data source = ChEMBL document CHEMBL5604062

Listed compounds paired with reported pIC50
Molecular target: Nonstructural protein 3 (Zika virus, UniProt A0A024AXB9)
Sequence (A0A024AXB9 whole entry): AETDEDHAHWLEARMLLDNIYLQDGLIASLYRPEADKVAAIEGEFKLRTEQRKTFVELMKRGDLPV
Experiment: Functional biochemical assay to identify treatments for viral infectious disease that targets Zika NS2B-NS3 protease. Utilizing a direct enzyme activity measurement method, reading the fluorescence intensity is used to characterize the relative potency of inhibitors as IC50.
Design: species or system PRVABC59
pIC50: −log10 of the molar value.
experimental_readout: pIC50

> print(dat)
                         compound.structure                               measured.on  prefix.operator  reported.value
1  Cc1cc(C(=O)Nc2cccc(CN)c2)nc2c(C(C)C)cnn12  Nonstructural protein 3 (Zika virus, UniProt A0A024AXB9)                <            4.00
2  NCc1cc(NC(=O)c2cc(Cl)cc(NC(=O)OCc3ccccc3)c2)cc([C@@H]2C[C@H]2C(=O)O)c1  Nonstructural protein 3 (Zika virus, UniProt A0A024AXB9)                =            5.25
3  CCCN(C)C(=O)Cn1ccnc(N2CC[C@H](CO)C2)c1=O  Nonstructural protein 3 (Zika virus, UniProt A0A024AXB9)                <            4.00
4  O=C(Nc1cc(Cl)cc(C(=O)Nc2cccc(-c3cn[nH]n3)c2)c1)OCc1ccccc1  Nonstructural protein 3 (Zika virus, UniProt A0A024AXB9)                <            4.00
5  O=C(O)c1cc(Cl)cc(F)c1NS(=O)(=O)c1ccc(Oc2ccccc2Cl)cc1  Nonstructural protein 3 (Zika virus, UniProt A0A024AXB9)                =            4.17
